targetDesc: 5-HT7 receptor (Homo sapiens)
assayComment: 5-HT7 receptor competitive binding assay
conditionLabel: IC50, 5-HT7, triplicate in three independent experiments
valueType: pIC50
On this scale, pIC50 is minus log10 of a concentration expressed in M (mol/L).

Inquiry: Look up pIC50: CNCCc1c[nH]c2ccc(O)cc12
Reply text: 10.70

----------
targetDesc: 5-HT7 receptor (Homo sapiens)
assayComment: Intracellular cAMP assay in 5-HT7-transfected HEK293 cells
valueType: EC50 (nM)
# output: bare number, implied unit nM

Inquiry: Look up EC50: CNCCc1c[nH]c2ccc(O)cc12
Reply text: 22

----------
targetDesc: 5-HT3 (Homo sapiens)
Sequence (P46098 24-478, species assumed): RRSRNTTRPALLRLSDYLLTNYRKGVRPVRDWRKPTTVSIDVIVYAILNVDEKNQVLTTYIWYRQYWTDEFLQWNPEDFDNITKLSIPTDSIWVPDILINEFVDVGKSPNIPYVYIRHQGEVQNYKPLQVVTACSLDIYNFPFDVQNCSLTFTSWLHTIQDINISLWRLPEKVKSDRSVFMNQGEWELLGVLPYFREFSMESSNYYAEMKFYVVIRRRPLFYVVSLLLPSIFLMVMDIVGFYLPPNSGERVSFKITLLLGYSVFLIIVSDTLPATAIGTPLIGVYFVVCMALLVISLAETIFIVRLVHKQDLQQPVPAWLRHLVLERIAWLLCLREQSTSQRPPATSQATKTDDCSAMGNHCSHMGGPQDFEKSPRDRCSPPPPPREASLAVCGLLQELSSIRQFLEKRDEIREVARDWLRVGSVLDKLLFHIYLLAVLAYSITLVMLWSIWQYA
valueType: pIC50
On this scale, pIC50 is minus log10 of a concentration expressed in M (mol/L).

Inquiry: Look up pIC50: CNCCc1c[nH]c2ccc(O)cc12
Reply text: 5.78

----------
targetDesc: 5-HT5A (Homo sapiens, UniProt P47898)
Sequence (P47898 whole entry, species assumed): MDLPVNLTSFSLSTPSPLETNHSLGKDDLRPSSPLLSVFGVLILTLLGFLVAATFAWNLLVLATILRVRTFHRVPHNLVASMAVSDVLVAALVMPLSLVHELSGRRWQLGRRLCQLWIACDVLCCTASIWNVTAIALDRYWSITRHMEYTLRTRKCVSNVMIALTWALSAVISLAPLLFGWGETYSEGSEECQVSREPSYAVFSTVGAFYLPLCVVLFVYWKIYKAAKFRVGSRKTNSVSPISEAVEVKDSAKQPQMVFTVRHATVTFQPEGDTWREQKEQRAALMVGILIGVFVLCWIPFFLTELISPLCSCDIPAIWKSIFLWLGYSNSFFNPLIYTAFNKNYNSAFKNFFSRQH
assayComment: MDS Pharma serotonin receptor binding, 5-HT5A
valueType: IC50 (µM)
# output: bare number, implied unit µM

Inquiry: Look up IC50: CNCCc1c[nH]c2ccc(O)cc12
Reply text: 0.289

----------
targetDesc: 5-HT7 receptor (Homo sapiens, UniProt P34969)
Sequence (P34969 whole entry): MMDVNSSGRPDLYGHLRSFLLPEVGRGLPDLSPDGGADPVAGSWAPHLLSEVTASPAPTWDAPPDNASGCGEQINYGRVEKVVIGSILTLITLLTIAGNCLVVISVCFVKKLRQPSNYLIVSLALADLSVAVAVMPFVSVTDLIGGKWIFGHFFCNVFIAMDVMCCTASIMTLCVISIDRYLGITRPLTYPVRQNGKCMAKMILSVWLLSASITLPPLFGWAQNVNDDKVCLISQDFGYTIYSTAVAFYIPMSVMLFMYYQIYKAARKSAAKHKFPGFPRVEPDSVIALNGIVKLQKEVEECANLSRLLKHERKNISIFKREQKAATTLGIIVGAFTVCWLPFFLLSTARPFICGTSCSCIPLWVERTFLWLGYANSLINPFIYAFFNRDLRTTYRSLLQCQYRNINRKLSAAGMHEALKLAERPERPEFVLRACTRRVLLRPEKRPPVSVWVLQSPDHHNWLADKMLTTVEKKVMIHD
assayComment: 5-HT7 receptor competitive binding assay
conditionLabel: 5-HT7 receptor binding IC50
valueType: pIC50
On this scale, pIC50 is minus log10 of a concentration expressed in M (mol/L).

Inquiry: Lab note: need pIC50 with 5-HT7 receptor (Homo sapiens, UniProt P34969) for entry CNCCc1c[nH]c2ccc(O)cc12 , please look it up.
Reply text: 10.64

----------
targetDesc: 5-HT2B (Homo sapiens)
Sequence (P41595 whole entry, species assumed): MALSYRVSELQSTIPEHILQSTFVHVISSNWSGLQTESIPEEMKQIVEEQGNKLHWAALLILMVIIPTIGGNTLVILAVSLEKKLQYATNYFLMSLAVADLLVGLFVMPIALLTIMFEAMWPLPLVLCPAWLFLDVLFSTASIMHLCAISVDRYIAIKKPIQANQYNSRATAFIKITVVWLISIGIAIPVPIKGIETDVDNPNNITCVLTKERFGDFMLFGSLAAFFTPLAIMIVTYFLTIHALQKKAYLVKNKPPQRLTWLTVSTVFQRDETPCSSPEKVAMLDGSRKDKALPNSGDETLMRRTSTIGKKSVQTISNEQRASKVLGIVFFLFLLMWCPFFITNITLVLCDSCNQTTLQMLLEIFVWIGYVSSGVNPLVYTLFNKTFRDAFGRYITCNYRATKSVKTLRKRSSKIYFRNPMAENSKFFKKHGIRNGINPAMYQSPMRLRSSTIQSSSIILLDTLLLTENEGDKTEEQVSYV
valueType: IC50 (nM)
# output: bare number, implied unit nM

Inquiry: Look up IC50: CNCCc1c[nH]c2ccc(O)cc12
Reply text: 97

----------
targetDesc: 5-HT7 receptor (Homo sapiens, UniProt P34969)
assayComment: 5-HT7 receptor competitive binding assay
pIC50: −log10 of the molar value.
valueType: pIC50

Inquiry: Look up pIC50: COc1cc(/C=C/C(=O)O[C@H](C(=O)O)[C@](O)(Cc2ccc(O)cc2)C(=O)O)ccc1O [Cimicifugic acid E, cimicifugic acid E]
Reply text: < 3.30

Inquiry: Try this compound next: COc1ccc(/C=C/C(=O)O[C@H](C(=O)O)[C@](O)(Cc2ccc(O)cc2)C(=O)O)cc1O [Cimicifugic acid F, cimicifugic acid F]
Reply text: < 3.30

Inquiry: Try this compound next: COc1cc(/C=C/C(=O)O[C@H](C(=O)O)[C@](O)(Cc2ccc(O)c(O)c2)C(=O)O)ccc1O [Cimicifugic acid A, cimicifugic acid A]
Reply text: < 3.30

Inquiry: Try this compound next: O=C(/C=C/c1ccc(O)c(O)c1)O[C@H](C(=O)O)[C@](O)(Cc1ccc(O)c(O)c1)C(=O)O [fukinolic acid]
Reply text: 4.00

Inquiry: Try this compound next: COc1ccc(/C=C/C(=O)O[C@H](C(=O)O)[C@](O)(Cc2ccc(O)c(O)c2)C(=O)O)cc1O [Cimicifugic acid B, cimicifugic acid B]
Reply text: < 3.30

----------
targetDesc: 5-HT1A (Homo sapiens, UniProt P08908)
Sequence (P08908 1-422): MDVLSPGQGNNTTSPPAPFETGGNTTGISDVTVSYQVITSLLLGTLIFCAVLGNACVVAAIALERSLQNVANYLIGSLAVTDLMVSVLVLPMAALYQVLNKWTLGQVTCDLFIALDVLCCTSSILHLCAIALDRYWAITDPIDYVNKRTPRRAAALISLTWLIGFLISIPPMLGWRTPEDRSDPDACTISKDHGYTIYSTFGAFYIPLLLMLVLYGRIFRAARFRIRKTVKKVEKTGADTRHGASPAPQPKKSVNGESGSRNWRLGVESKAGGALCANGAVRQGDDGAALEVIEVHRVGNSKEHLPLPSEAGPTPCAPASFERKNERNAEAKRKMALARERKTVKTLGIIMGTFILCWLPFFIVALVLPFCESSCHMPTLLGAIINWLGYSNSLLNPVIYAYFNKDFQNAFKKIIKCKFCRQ
valueType: pIC50
On this scale, pIC50 is minus log10 of a concentration expressed in M (mol/L).

Inquiry: Lab note: need pIC50 with 5-HT1A (Homo sapiens, UniProt P08908) for entry CNCCc1c[nH]c2ccc(O)cc12 [Nω-methylserotonin, 3-(2-Methylaminoethyl)indol-5-ol] , please look it up.
Reply text: 8.70
